Entry source: paper PMC9186491

assaySummary: Solubility (PBS/Fas/Fes)
Type: physicochemical
studyConditions: FeSSIF (Fes [sic]), fessif; read-out: Solubility, Fes
assayReadout: solubility (µM)
Unit µM implied. Number only.

Previously resolved entries follow.
* [2H]C([2H])([2H])NC(=O)c1nnc(NC(=O)N2CCC2)cc1Nc1cccc(-c2ncn(C)n2)c1OC | 108
* CNC(=O)c1nnc(NC(=O)N2CCC2)cc1Nc1cccc(-c2ncn(C)n2)c1OC | 60.9
* CNC(=O)c1nnc(NC(=O)C2CC2)c2[nH]c(-c3ccc(N)cc3OC)cc12 | 8.2

Reported solubility for `CNC(=O)c1nnc(NC(=O)C2CC2)c2[nH]c(-c3ccccc3OC)cc12` was 3.5

====

assaySummary: LM T1/2, M
Assay type: in vitro ADME
studyConditions: mouse, liver microsomes
assayReadout: half-life

As a guide, the following entries are already answered.
* CNC(=O)c1nnc(NC(=O)N2CCC2)cc1Nc1cccc(-c2ncn(C)n2)c1OC [SHR8751] | > 139 min
* CNC(=O)c1nnc(NC(=O)C2CC2)c2[nH]c(-c3ccc(N)cc3OC)cc12 [SHR2396] | 31 min
* CNC(=O)c1nnc(NC(=O)C2CC2)c2[nH]c(-c3ccccc3OC)cc12 [SHR2178] | 55 min

[2H]C([2H])([2H])NC(=O)c1nnc(NC(=O)N2CCC2)cc1Nc1cccc(-c2ncn(C)n2)c1OC [SHR9332] has a reported half-life of 49.8 min

====

assaySummary: PPB, R
Format: in vitro ADME
studyConditions: rat, plasma
assayReadout: fraction unbound
Answer as a number with no unit attached.

Examples with answers:
* CNC(=O)c1nnc(NC(=O)C2CC2)c2[nH]c(-c3ccc(N)cc3OC)cc12 | 0.0474
* CNC(=O)c1nnc(NC(=O)N2CCC2)cc1Nc1cccc(-c2ncn(C)n2)c1OC | 0.329

Sample `[2H]C([2H])([2H])NC(=O)c1nnc(NC(=O)N2CCC2)cc1Nc1cccc(-c2ncn(C)n2)c1OC` ; fraction unbound observed: 0.254

====

assaySummary: Solubility (PBS/Fas/Fes)
Format: physicochemical
studyConditions: PBS, aqueous buffer; read-out: Solubility, PBS
assayReadout: solubility

Example entries begin here.
* CNC(=O)c1nnc(NC(=O)N2CCC2)cc1Nc1cccc(-c2ncn(C)n2)c1OC [SHR8751] | 17.6 µM
* [2H]C([2H])([2H])NC(=O)c1nnc(NC(=O)N2CCC2)cc1Nc1cccc(-c2ncn(C)n2)c1OC [SHR9332] | 25.6 µM
* CNC(=O)c1nnc(NC(=O)C2CC2)c2[nH]c(-c3ccc(N)cc3OC)cc12 [SHR2396] | 0.34 µM

Here's the next entry for you.
The reported solubility of the molecule CNC(=O)c1nnc(NC(=O)C2CC2)c2[nH]c(-c3ccccc3OC)cc12 [SHR2178] was 0.1 µM

====

assaySummary: PPB, Mk
Type: in vitro ADME
studyConditions: monkey, plasma
assayReadout: fraction unbound
Reply with just the number.

Some solved cases for reference:
- [2H]C([2H])([2H])NC(=O)c1nnc(NC(=O)N2CCC2)cc1Nc1cccc(-c2ncn(C)n2)c1OC: 0.231
- CNC(=O)c1nnc(NC(=O)C2CC2)c2[nH]c(-c3ccc(N)cc3OC)cc12: 0.0351

Now let's try a different one.
Lab book: fraction unbound of `CNC(=O)c1nnc(NC(=O)N2CCC2)cc1Nc1cccc(-c2ncn(C)n2)c1OC` noted as 0.281

====

assaySummary: LM T1/2, R
Assay type: in vitro ADME
studyConditions: rat, liver microsomes
half-life values, listed per item

* CNC(=O)c1nnc(NC(=O)C2CC2)c2[nH]c(-c3ccccc3OC)cc12 | 0.4 h
* CNC(=O)c1nnc(NC(=O)N2CCC2)cc1Nc1cccc(-c2ncn(C)n2)c1OC | > 1.12 h
* CNC(=O)c1nnc(NC(=O)C2CC2)c2[nH]c(-c3ccc(N)cc3OC)cc12 | > 1.12 h

Next:
Data point: `[2H]C([2H])([2H])NC(=O)c1nnc(NC(=O)N2CCC2)cc1Nc1cccc(-c2ncn(C)n2)c1OC` ; half-life = > 1.12 h

====

Target protein (sequence): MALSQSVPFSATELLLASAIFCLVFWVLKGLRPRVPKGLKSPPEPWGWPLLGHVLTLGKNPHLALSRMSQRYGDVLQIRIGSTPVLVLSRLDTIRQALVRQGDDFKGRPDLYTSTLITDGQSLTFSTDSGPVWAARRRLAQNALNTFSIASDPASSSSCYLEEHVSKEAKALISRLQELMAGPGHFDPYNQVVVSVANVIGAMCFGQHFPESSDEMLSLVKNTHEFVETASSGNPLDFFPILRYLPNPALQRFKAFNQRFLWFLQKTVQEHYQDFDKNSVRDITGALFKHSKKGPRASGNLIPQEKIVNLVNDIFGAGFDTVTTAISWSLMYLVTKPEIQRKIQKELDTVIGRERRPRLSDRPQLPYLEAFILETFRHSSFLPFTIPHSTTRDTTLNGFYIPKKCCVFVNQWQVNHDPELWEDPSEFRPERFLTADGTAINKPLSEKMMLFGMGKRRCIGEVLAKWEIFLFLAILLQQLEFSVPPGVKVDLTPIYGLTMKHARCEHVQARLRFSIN
pIC50: −log10 of the molar value.
Quick reference: pIC50 of the listed items.

- CNC(=O)c1nnc(NC(=O)C2CC2)c2[nH]c(-c3ccc(N)cc3OC)cc12: < 4.52
- [2H]C([2H])([2H])NC(=O)c1nnc(NC(=O)N2CCC2)cc1Nc1cccc(-c2ncn(C)n2)c1OC: < 4.52
- CNC(=O)c1nnc(NC(=O)C2CC2)c2[nH]c(-c3ccccc3OC)cc12: 5.40

Record `CNC(=O)c1nnc(NC(=O)N2CCC2)cc1Nc1cccc(-c2ncn(C)n2)c1OC` . Reported pIC50: < 4.52

====

System: JAK1/3-dependent IL2-induced phosphorylation of STAT5 (Tyr694/699) in Kit225 cells
assaySummary: JAK cellular selectivity assay, IL2-pSTAT5 (JAK1/3)
Type: cell-based
studyConditions: Homo sapiens; Kit225 cells; read-out: JAK Cellular Selectivity (IC50) IL2-pSTAT5 (JAK1/3)
assayReadout: IC50

Please review the following examples before continuing.
- CNC(=O)c1nnc(NC(=O)C2CC2)c2[nH]c(-c3ccc(N)cc3OC)cc12: 1.4 µM
- CNC(=O)c1nnc(NC(=O)N2CCC2)cc1Nc1cccc(-c2ncn(C)n2)c1OC: > 10 µM

Attention now shifts to the item below.
Recorded IC50 for `[2H]C([2H])([2H])NC(=O)c1nnc(NC(=O)N2CCC2)cc1Nc1cccc(-c2ncn(C)n2)c1OC` on JAK1/3-dependent IL2-induced phosphorylation of STAT5 (Tyr694/699) in Kit225 cells was > 10 µM

====

Tested on: JAK1/3-dependent IL2-induced phosphorylation of STAT5 (Tyr694/699) in Kit225 cells
assaySummary: JAK cellular selectivity assay, IL2-pSTAT5 (JAK1/3)
Type: cell-based
studyConditions: Homo sapiens, KIT225, read-out: JAK Cellular Selectivity (IC50) IL2-pSTAT5 (JAK1/3)
assayReadout: pIC50
// pIC50 here means minus log10 of the molar concentration (mol/L)

# pIC50 (compound: `CNC(=O)c1nnc(Nc2ccc(N3CCC3)cn2)cc1Nc1cccc(-c2ncn(C)n2)c1OC` ) is 5.64

====

targetEntity: JAK1 (Homo sapiens, UniProt P23458)
Sequence (P23458 whole entry): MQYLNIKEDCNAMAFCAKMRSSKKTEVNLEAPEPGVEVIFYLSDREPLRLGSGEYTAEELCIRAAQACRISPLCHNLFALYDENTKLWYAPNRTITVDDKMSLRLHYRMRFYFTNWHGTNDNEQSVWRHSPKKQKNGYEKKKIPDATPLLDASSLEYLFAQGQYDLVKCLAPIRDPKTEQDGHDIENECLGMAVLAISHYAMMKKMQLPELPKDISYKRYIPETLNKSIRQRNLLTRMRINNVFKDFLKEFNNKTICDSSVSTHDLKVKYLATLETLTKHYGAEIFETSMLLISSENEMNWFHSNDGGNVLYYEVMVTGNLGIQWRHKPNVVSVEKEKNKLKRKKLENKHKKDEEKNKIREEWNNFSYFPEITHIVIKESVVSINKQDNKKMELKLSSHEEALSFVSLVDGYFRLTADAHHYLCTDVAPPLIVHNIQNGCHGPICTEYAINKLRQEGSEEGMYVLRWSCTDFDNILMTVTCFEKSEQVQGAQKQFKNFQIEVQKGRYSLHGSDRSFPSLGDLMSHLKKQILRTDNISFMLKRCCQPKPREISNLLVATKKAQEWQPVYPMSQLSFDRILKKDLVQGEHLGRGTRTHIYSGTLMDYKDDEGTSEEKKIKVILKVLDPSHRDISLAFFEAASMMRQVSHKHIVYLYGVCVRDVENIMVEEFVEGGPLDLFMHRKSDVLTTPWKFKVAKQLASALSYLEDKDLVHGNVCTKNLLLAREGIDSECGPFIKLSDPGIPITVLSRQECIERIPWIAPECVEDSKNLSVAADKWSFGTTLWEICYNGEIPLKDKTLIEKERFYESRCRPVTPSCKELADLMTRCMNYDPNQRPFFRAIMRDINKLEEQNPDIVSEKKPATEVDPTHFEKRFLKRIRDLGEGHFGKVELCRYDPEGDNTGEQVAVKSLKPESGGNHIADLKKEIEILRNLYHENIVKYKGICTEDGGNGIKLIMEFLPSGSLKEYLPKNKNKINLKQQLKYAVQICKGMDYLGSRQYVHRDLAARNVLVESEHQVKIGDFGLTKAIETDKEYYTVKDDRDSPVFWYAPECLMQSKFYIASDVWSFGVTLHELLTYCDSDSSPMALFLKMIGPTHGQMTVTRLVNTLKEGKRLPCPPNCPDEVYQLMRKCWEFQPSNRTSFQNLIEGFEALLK
assaySummary: Z'LYTE JAK kinase inhibition assay, JAK1
Format: biochemical
studyConditions: read-out: JAK Catalytic Selectivity (IC50) JAK1
pIC50: −log10 of the molar value.
assayReadout: pIC50

- [2H]C([2H])([2H])NC(=O)c1nnc(NC(=O)N2CCC2)cc1Nc1cccc(-c2ncn(C)n2)c1OC [SHR9332]: < 5.00
- CNC(=O)c1nnc(NC(=O)N2CCC2)cc1Nc1cccc(-c2ncn(C)n2)c1OC [SHR8751]: < 5.00

Let us move to another entry and its pIC50.
// field: pIC50; key: CNC(=O)c1nnc(NC(=O)C2CC2)c2[nH]c(-c3ccc(N)cc3OC)cc12 [SHR2396] ; value = < 5.00

====

pIC50: −log10 of the molar value.
Parameter 'readout' = pIC50; parameter 'system' = CYP450 2C19 (Homo sapiens, UniProt P33261).
Sequence (P33261 whole entry): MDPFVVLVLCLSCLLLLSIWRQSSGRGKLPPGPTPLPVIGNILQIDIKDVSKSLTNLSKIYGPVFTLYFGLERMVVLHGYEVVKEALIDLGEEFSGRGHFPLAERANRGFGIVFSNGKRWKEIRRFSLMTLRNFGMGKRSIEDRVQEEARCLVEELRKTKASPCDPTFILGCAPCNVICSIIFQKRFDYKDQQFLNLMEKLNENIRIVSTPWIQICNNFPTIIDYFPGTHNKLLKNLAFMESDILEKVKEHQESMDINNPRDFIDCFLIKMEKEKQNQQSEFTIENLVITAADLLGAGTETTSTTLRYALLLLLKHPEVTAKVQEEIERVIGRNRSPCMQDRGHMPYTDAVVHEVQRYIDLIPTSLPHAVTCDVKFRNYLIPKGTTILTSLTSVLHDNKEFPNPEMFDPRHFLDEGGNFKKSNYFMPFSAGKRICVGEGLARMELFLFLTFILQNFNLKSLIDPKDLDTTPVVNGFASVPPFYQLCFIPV

# example entries with known answers
* CNC(=O)c1nnc(NC(=O)N2CCC2)cc1Nc1cccc(-c2ncn(C)n2)c1OC | < 4.52
* [2H]C([2H])([2H])NC(=O)c1nnc(NC(=O)N2CCC2)cc1Nc1cccc(-c2ncn(C)n2)c1OC | < 4.52
* CNC(=O)c1nnc(NC(=O)C2CC2)c2[nH]c(-c3ccc(N)cc3OC)cc12 | < 4.52

Shift focus to the following entry.
The reported pIC50 of the compound `CNC(=O)c1nnc(NC(=O)C2CC2)c2[nH]c(-c3ccccc3OC)cc12` was 4.52
